Taken from PubChem BioAssay (EPA / NIEHS).

test_protocol: CCTE_Shafer_MEA_acute_per_network_burst_electrodes_number_mean: CCTE's Neural Acute Assay for Mean Number of Electrodes in a Network Burst, Shafer Lab (AID 2284021);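 further: curves fitted for decreases only so hits reduce electrodes per burst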
Protocol: CCTE_Shafer_MEA_acute assay is conducted using Axion Biosystems 48 well microelectrode array (MEA) plates and Maestro recording system. Each well of the MEA plate contains a grid of 16 microelectrodes embedded in the culture surface. Electrically active cells, such as neurons, can be cultured over the electrodes, and electrical activity in these cells can be recorded extracellularly. […]
Activity calls are given as the source filed them. How the source made its calls: active means hit-call score of the fitted dose curve at least 0.9, where 1 is the maximum; inactive means score below 0.9.
Hi! Could you answer with just one of these? 1.0 for active, 0.0 for inactive

Recorded call for CN(C[C@@H](CC[N+]12CCC(C3CCCCC3)(CC1)CC2)c1ccc(Cl)c(Cl)c1)C(=O)c1cc(C(F)(F)F)cc(C(F)(F)F)c1 ? 1.0

Recorded call for NCc1cccc(C2CCN(C(=O)c3ccc(C#Cc4ccccc4F)o3)CC2)c1 ? 1.0

Recorded call for COc1cccc([C@H](O)C2CCN(CCc3ccc(F)cc3)CC2)c1OC ? 0.0

Recorded call for CCCCOC(=O)c1ccc(O)cc1 ? 0.0

Recorded call for NC(=O)c1nc(-c2cccc(-c3cc(F)ccc3OCC(F)(F)C(F)(F)F)c2)n[nH]1 ? 0.0

Recorded call for CC(C)(C)c1cc(/C=C2\SC(N)=NC2=O)cc(C(C)(C)C)c1O ? 0.0

Recorded call for CCCCCCCCOC(=O)c1cc(O)c(O)c(O)c1 ? 1.0

Recorded call for CCCCCCCCCCCCO ? 0.0

Recorded call for CN1C(=O)CC[C@H]1c1cccnc1 ? 0.0

Recorded call for CCN(CC)C(=O)c1cc(S(=O)(=O)Cc2ccccc2)c(N2CCC(c3ccccc3)CC2)cc1N(CC)CCN(C)C ? 0.0

Recorded call for CC(O)CC(C)(C)O (stereo unspecified) ? 0.0
